# Tested on: ACHN renal
# assay_info: NCI tumour cell line growth inhibition, 48 h; in the data active = GI50 below about 0.43 µM; inactive = the rest
Form entry, call: pick from active, inactive

Ask | Per the assay record, what outcome was assigned to CNc1c2ccccc2nc2occ(Cl)c12 ?
Reply | inactive

Ask | Per the assay record, what outcome was assigned to COc1ccc(Cn2cc3c(c2-c2ccccc2)CCc2cnoc2-3)cc1 ?
Reply | active

Ask | Per the assay record, what outcome was assigned to O=C1c2c(c3c4cc(F)ccc4oc3c3[nH]c4ccccc4c23)C(=O)N1O ?
Reply | active

Ask | Per the assay record, what outcome was assigned to CC(C)(C)OC(=O)NCCCCCCCCCn1c2c(c3ccccc3c1=O)C(=O)c1ccccc1-2 ?
Reply | inactive

----------
# System: A498 renal
# assay_info: NCI tumour cell line growth inhibition, 48 h
Rule: TGI of 30 µM or more gives Condition met; anything lower gives Condition not met.

Please review the entries below; each comes with its answer.
{"molecule": "CN1CCN(C2=C(Cl)C(=O)c3ccccc3C2=O)CC1", "category": "Condition not met"}
{"molecule": "N[C@H]1CCC[C@@H](O)C1O (some centres not stated)", "category": "Condition met"}

Ask | Identify whether the reported TGI of the following molecule is 30 µM or greater: COc1ccc2c(c1)/C(=C\c1c(Cl)nc3n1CCS3)C(=O)N2
Reply | Condition met

Ask | Identify whether the reported TGI of the following molecule is 30 µM or greater: CC1=C(C)C(=O)OC(C(C)(O)C2(O)CC3OC34C3CC(O)C56OC5C=CC(=O)C6(C)C3CCC42C)C1 (configuration not stated)
Reply | Condition not met

Ask | Identify whether the reported TGI of the following molecule is 30 µM or greater: O=C1c2c(c3c4cc(F)ccc4oc3c3[nH]c4ccccc4c23)C(=O)N1O
Reply | Condition not met

Ask | Identify whether the reported TGI of the following molecule is 30 µM or greater: CN[C@@H](C)C(=O)N[C@H](C(=O)N1CCC[C@H]1c1nc(C(=O)c2ccc(F)cc2)cs1)C1CCCCC1
Reply | Condition not met

Ask | Identify whether the reported TGI of the following molecule is 30 µM or greater: COc1ccc(-c2cn(C)c3c2-n2cccc2C3=O)cc1O
Reply | Condition not met

Ask | Identify whether the reported TGI of the following molecule is 30 µM or greater: COC(=O)c1csc(-c2csc(CCNC(=O)OC(C)(C)C)n2)n1
Reply | Condition met

Ask | Identify whether the reported TGI of the following molecule is 30 µM or greater: COc1cc(C[C@H]2COC(=O)[C@]2(O)Cc2ccc(OCc3ccccc3)c(OC)c2)ccc1OCc1ccccc1
Reply | Condition met

Ask | Identify whether the reported TGI of the following molecule is 30 µM or greater: CC(C)(C)OC(=O)NC(CSCc1ccc(C(=O)c2ccccc2)cc1)C(=O)N1CCN(CCCCN2c3ccccc3Sc3cc(N=[N+]=[N-])ccc32)CC1 (configuration not stated)
Reply | Condition met

Ask | Identify whether the reported TGI of the following molecule is 30 µM or greater: NCCCn1c(Cl)nc2ccccc21
Reply | Condition met

Ask | Identify whether the reported TGI of the following molecule is 30 µM or greater: O=NNc1ccc(-c2ccccc2)cn1
Reply | Condition met

Ask | Identify whether the reported TGI of the following molecule is 30 µM or greater: O=C(CC1(O)C(=O)Nc2ccccc21)c1ccc(Cl)c(Cl)c1 (configuration not stated)
Reply | Condition met

Ask | Identify whether the reported TGI of the following molecule is 30 µM or greater: CCC(C)C(Nc1c2ccccc2nc2c(C(=O)NCCN(C)C)cccc12)C(=O)O (configuration not stated)
Reply | Condition met

Ask | Identify whether the reported TGI of the following molecule is 30 µM or greater: CC1=NNC(=O)C1C1(C(=O)O)CC(c2c[nH]c3ccccc23)=NC(=S)N1 (configuration not stated)
Reply | Condition met

Ask | Identify whether the reported TGI of the following molecule is 30 µM or greater: CCO/N=C\c1ccc2oc(-c3ccccc3)cc(=O)c2c1
Reply | Condition not met

Ask | Identify whether the reported TGI of the following molecule is 30 µM or greater: N=C1OC(CN2CCN(c3ccccc3)CC2)CN1C(=O)Nc1ccccc1 (configuration not stated)
Reply | Condition met

Ask | Identify whether the reported TGI of the following molecule is 30 µM or greater: S=C1SCC2CCCN12 (configuration not stated)
Reply | Condition met

Ask | Identify whether the reported TGI of the following molecule is 30 µM or greater: COc1ccc2nc3cc(Cl)ccc3c(Nc3ccccc3-c3ccccc3Nc3c4ccc(Cl)cc4nc4ccc(OC)cc34)c2c1
Reply | Condition met

Ask | Identify whether the reported TGI of the following molecule is 30 µM or greater: Cc1nc2ccccc2c(=O)n1/N=C(\N=Nc1ccc(Cl)cc1)c1cccc(-c2ccco2)c1
Reply | Condition met
